Ref: PubChem BioAssay (NCATS)

Target: Guanidinoacetate N-methyltransferase (Homo sapiens)
Assay info: Confirmatory Screen for Target Class Profiling of Small Molecule Inhibitors of Methyltransferases (AID 1745852); further: on the % scale 0 is the no-effect control and ±100 the full control effect
Condition notes: MTase-Glo luminescence, SAH detection, recombinant enzyme; at 57.3 µM (top of the series)
Measured metric: activity change, negative = inhibition (%)

Compound	Target	Measured metric	Unit abbreviation	Quantitative result
NO	Guanidinoacetate N-methyltransferase (Homo sapiens)	activity change, negative = inhibition	%	-5.54
COc1ccc(/C=C2\COc3ccc(C)cc3C2=O)cc1O	Guanidinoacetate N-methyltransferase (Homo sapiens)	activity change, negative = inhibition	%	-4.7
O=C(c1cc(O)c(O)c([N+](=O)[O-])c1)c1ccccc1F	Guanidinoacetate N-methyltransferase (Homo sapiens)	activity change, negative = inhibition	%	-5.06
Oc1cc(O)cc(/C=C/c2ccc(O)c(O)c2)c1	Guanidinoacetate N-methyltransferase (Homo sapiens)	activity change, negative = inhibition	%	-14.6
O=Nc1ccc2oc(=O)ccc2c1	Guanidinoacetate N-methyltransferase (Homo sapiens)	activity change, negative = inhibition	%	3.53
Oc1ccc(C2CNCc3sccc32)cc1O (configuration not stated)	Guanidinoacetate N-methyltransferase (Homo sapiens)	activity change, negative = inhibition	%	1.13
CC(C)(C)c1ccc(S(=O)(=O)/C=C/C#N)cc1	Guanidinoacetate N-methyltransferase (Homo sapiens)	activity change, negative = inhibition	%	-1.56
COc1ccc(Br)cc1S(=O)(=O)NC(=O)/C=C/c1ccccc1Cc1ccc2ccccc2c1	Guanidinoacetate N-methyltransferase (Homo sapiens)	activity change, negative = inhibition	%	-3.05
COc1cc(/C=C/C(=O)CC(=O)/C=C/c2ccc(O)c(OC)c2)ccc1O	Guanidinoacetate N-methyltransferase (Homo sapiens)	activity change, negative = inhibition	%	-2.93
Oc1ccccc1O	Guanidinoacetate N-methyltransferase (Homo sapiens)	activity change, negative = inhibition	%	-2.32
O=C(O)CNC(=O)C(CS)Cc1ccccc1 (configuration not stated)	Guanidinoacetate N-methyltransferase (Homo sapiens)	activity change, negative = inhibition	%	4.59
CC(C)(C=O)Cc1cc(C(C)(C)C)c(O)c(C(C)(C)C)c1	Guanidinoacetate N-methyltransferase (Homo sapiens)	activity change, negative = inhibition	%	1.77

====

Assay info: qHTS for Activators of Parkin Expression: LOPAC Validation Assay (NLuc Reporter) (AID 720572;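 further: 0% = DMSO and 100% = positive control compound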)
Condition notes: Parkin promoter NanoLuc reporter cells, luminescence; series mostly up to 46.1 µM
Records with an inconclusive call do not appear. The source made the active and inactive calls. The call rests on the fitted dose curve; in most records, active means well fitted activation curve with a large enough effect; inconclusive means small, poorly fitted or top-dose-only effect; inactive means flat fitted curve, though single readings scatter.

Molecule	outcome
NC(CCCP(=O)(O)O)C(=O)O (centres undefined)	inactive
Fc1cccc(/C=N/N=C/c2cccc(F)c2)c1	inactive
CC12C(=O)OC(=O)C1(C)C1CCC2O1 (centres undefined)	inactive
NC(=S)c1ccc[n+]([C@@H]2O[C@@H](COP(=O)([O-])OP(=O)(O)OC[C@H]3O[C@@H](n4cnc5c(N)ncnc54)[C@H](OP(=O)(O)O)[C@@H]3O)C(O)C2O)c1 (some centres undefined)	inactive
Nc1nc(SCc2ccc([N+](=O)[O-])cc2)c2ncn([C@@H]3O[C@H](CO)[C@@H](O)[C@H]3O)c2n1	inactive
CC(=O)N[C@H](C(=O)O)C(C)(C)SN=O	inactive
NCCNC(=O)c1ncsc1-c1cccc(F)c1	inactive
NC[C@H]1O[C@@H](n2cnc3c(N)ncnc32)[C@H](O)[C@@H]1O	inactive
CC(C)CC(NP(=O)(O)O[C@@H]1O[C@@H](C)[C@H](O)[C@@H](O)[C@H]1O)C(=O)NC(Cc1c[nH]c2ccccc12)C(=O)O (some centres undefined)	inactive
